- target-of-assay: human TAS2R1 (Homo sapiens)
- Construct: expressed in transfected cells; host or cells: HEK293T-Gα16gust44
- Sequence (Q9NYW7 1-299): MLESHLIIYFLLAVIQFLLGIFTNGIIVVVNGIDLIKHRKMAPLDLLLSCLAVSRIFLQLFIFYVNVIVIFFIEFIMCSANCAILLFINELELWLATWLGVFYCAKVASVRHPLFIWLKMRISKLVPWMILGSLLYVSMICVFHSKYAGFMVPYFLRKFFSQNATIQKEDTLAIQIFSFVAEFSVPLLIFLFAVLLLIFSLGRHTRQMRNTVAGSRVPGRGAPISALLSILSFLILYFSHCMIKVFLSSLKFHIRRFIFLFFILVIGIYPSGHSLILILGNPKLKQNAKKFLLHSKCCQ
- test-method-notes: Calcium imaging assay (FLIPR), HEK293T-Gα16gust44 cells transfected with human TAS2R1
- Assay type: cell-based
- protocol-conditions: Time 80.781 s
Here, each record is paired with measured RLU data.
measured-parameter: RLU (RLU)

1. C[C@H](CCC(=O)NCCS(=O)(=O)O)[C@H]1CC[C@H]2[C@@H]3CC[C@@H]4C[C@H](O)CC[C@]4(C)[C@H]3CC[C@]12C [Taurolithocholic Acid, taurolithocholic acid]    705.753
2. C[C@H](CCC(=O)NCCS(=O)(=O)O)[C@H]1CC[C@H]2[C@@H]3[C@H](O)C[C@@H]4C[C@H](O)CC[C@]4(C)[C@H]3C[C@H](O)[C@]12C [Taurocholic Acid, taurocholic acid]    440.793
3. C[C@H](CCC(=O)O)[C@H]1CC[C@H]2[C@@H]3CC[C@@H]4C[C@H](O)CC[C@]4(C)[C@H]3C[C@H](O)[C@]12C [Deoxycholic Acid, deoxycholic acid]    400.686
4. C[C@H](CCC(=O)NCC(=O)O)[C@H]1CC[C@H]2[C@@H]3[C@H](O)C[C@@H]4C[C@H](O)CC[C@]4(C)[C@H]3C[C@H](O)[C@]12C [Glycocholic Acid, glycocholic acid]    605.728

* * *

- target-of-assay: mouse Tas2r105 (Mus musculus)
- Construct: expressed in transfected cells; host or cells: HEK293T-Gα16gust44
- Sequence (Q9JKT4 whole entry): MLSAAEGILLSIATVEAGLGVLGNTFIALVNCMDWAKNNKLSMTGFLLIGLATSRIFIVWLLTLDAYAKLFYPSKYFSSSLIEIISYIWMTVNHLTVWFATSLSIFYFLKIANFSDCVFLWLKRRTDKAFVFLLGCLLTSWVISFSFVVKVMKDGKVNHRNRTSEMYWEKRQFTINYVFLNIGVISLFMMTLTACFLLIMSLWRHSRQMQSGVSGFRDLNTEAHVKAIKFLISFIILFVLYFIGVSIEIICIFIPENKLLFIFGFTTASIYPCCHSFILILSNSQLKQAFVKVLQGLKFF
- test-method-notes: Calcium imaging assay (FLIPR), HEK293T-Gα16gust44 cells transfected with mouse Tas2r105
- Assay type: cell-based
- protocol-conditions: Time 120.781 s
Here, each record is paired with measured RLU data.
measured-parameter: RLU (RLU)

1. C[C@H](CCC(=O)O)[C@H]1CC[C@H]2[C@@H]3[C@H](O)C[C@@H]4C[C@H](O)CC[C@]4(C)[C@H]3C[C@H](O)[C@]12C    575.811
2. C[C@H](CCC(=O)NCC(=O)O)[C@H]1CC[C@H]2[C@@H]3[C@H](O)C[C@@H]4C[C@H](O)CC[C@]4(C)[C@H]3C[C@H](O)[C@]12C    497.17
3. C[C@H](CCC(=O)O)[C@H]1CC[C@H]2[C@@H]3CC[C@@H]4C[C@H](O)CC[C@]4(C)[C@H]3C[C@H](O)[C@]12C    160.404
4. C[C@H](CCC(=O)O)[C@H]1CC[C@H]2[C@@H]3CC[C@@H]4C[C@H](O)CC[C@]4(C)[C@H]3CC[C@]12C    260.092
